Test system: Klebsiella pneumoniae ATCC 51504 (KP4)
Experimental readout: MIC

Field: example entries. Status: answers known.
## Input Would you kindly share the measured MIC for CCN1CCOc2ccc(-c3nc(N)[nH]c3-c3ccnc(C)c3)cc21 [Example 57] ?
## Output ≤ 1 µM

## Input State the recorded MIC for this entry: Cc1cc(-c2[nH]c(N)nc2-c2ccc3c(c2)OCCO3)ccn1 [Example 32]
## Output 1 to 10 µM

## Input // returns reported MIC for input COCCN1CCOc2ccc(-c3nc(N)[nH]c3-c3ccnc(C)c3)cc21 [Example 64]
## Output 1 to 10 µM

For the next question, use this compound.
## Input // query MIC value for entry Cc1cc(-c2[nH]c(N)nc2-c2ccc3c(c2)N(S(C)(=O)=O)CCO3)ccn1 [Example 55]
## Output 1 to 10 µM
